protocol-summary: Unbound fraction in brain (mouse PK table footnote)
Format: in vitro ADME
quantity-measured: fraction unbound
Just the number, please, no unit after it.

Cc1ccc(S(=O)(=O)n2ccc(C(=O)NCc3ncco3)c2)cc1 [Compound 86]	0.11

The record that follows has no fraction unbound shown yet.
Prompt: Return the recorded fraction unbound value; entry: Cc1cnc(CNC(=O)c2ccn(S(=O)(=O)c3ccc(F)cc3C)c2)cn1 [Compound 90]
Completion: 0.1

###

protocol-summary: In vivo pharmacokinetic time profile in mice (plasma and brain)
Design: species or system mouse
assay-setup: male, C57, plasma, 10 mg/kg; mouse, SC administration, dose 10 (mg/mg), vehicle 10% HP-betaCD
quantity-measured: Cmax (ng/mL)
Only the number, expressed in ng/mL, is required.

Prompt: Return the recorded Cmax value; entry: Cc1cnc(CNC(=O)c2ccn(S(=O)(=O)c3ccc(F)cc3C)c2)cn1 [Compound 90]
Completion: 6360

###

protocol-summary: In vivo pharmacokinetic time profile in rats (plasma and brain)
assay-setup: male, Sprague Dawley, plasma, 3 mg/mg; rat, SC administration, dose 3 (mg/mg [sic]), vehicle 10% HP-betaCD
quantity-measured: Cmax (ng/mL)
Only the number, expressed in ng/mL, is required.

Prompt: Return the recorded Cmax value; entry: Cc1ccc(S(=O)(=O)n2ccc(C(=O)NCc3ncco3)c2)cc1
Completion: 1100

###

protocol-summary: In vivo pharmacokinetic time profile in rats (plasma and brain)
assay-setup: male, Sprague Dawley, plasma; rat, SC administration, dose 3 (mg/mg); read-out: T½ (converted)
quantity-measured: half-life (min)
Only the number, expressed in min, is required.

Prompt: Return the recorded half-life value; entry: Cc1cnc(CNC(=O)c2ccn(S(=O)(=O)c3ccc(F)cc3C)c2)cn1
Completion: 48

###

assay-system: hKv3.1b (Homo sapiens, UniProt P48547)
Construct: expressed in transfected cells
protocol-summary: Automated patch clamp (QPatch-16x) on HEK-293 cells stably expressing hKv3.1b
Type: cell-based
assay-setup: concentration needed to shift the activation threshold 5 mV
quantity-measured: ECdelta5 mV (nM)
Only the number, expressed in nM, is required.

Please review the following examples before continuing.
Cc1ccc(S(=O)(=O)n2ccc(C(=O)NCc3ccon3)c2)cc1	2500
Cc1cnc(CNC(=O)c2ccn(S(=O)(=O)c3c(C)cc(F)cc3C)c2)cn1	1900
Cc1ccc(S(=O)(=O)n2ccc(C(=O)NCc3cnc(C)cn3)c2)c(F)c1	1100
Cc1ccc(S(=O)(=O)n2ccc(C(=O)NCc3ccc(C)nc3)c2)cc1	930
COc1ccc(S(=O)(=O)n2ccc(C(=O)NCc3cnc(C)cn3)c2)c(Br)c1	1200

Prompt: Return the recorded ECdelta5 mV value; entry: Cc1ccc(S(=O)(=O)n2ccc(C(=O)NCc3cocn3)c2)cc1
Completion: 2000

Prompt: Return the recorded ECdelta5 mV value; entry: Cc1cnc(CNC(=O)c2ccn(S(=O)(=O)c3ccc(C(F)F)cc3)c2)cn1
Completion: 1500

Prompt: Return the recorded ECdelta5 mV value; entry: Cc1ccc(S(=O)(=O)n2ccc(C(=O)NCc3ncco3)c2)cc1
Completion: 2800

Prompt: Return the recorded ECdelta5 mV value; entry: Cc1ccc(S(=O)(=O)n2ccc(C(=O)NCc3nnc(C)o3)c2)cc1
Completion: 9600

###

protocol-summary: Unbound fraction in plasma
Type: in vitro ADME, rat
assay-setup: rat PK table footnote
quantity-measured: fraction unbound

Prompt: Return the recorded fraction unbound value; entry: Cc1cnc(CNC(=O)c2ccn(S(=O)(=O)c3ccc(F)cc3C)c2)cn1
Completion: 0.1

###

protocol-summary: In vivo pharmacokinetic time profile in rats (plasma and brain)
assay-setup: male, Sprague Dawley, plasma; rat, SC administration, dose 10 (mg/mg); read-out: T½ (converted)
quantity-measured: half-life (min)
Only the number, expressed in min, is required.

Prompt: Return the recorded half-life value; entry: Cc1cnc(CNC(=O)c2ccn(S(=O)(=O)c3ccc(F)cc3C)c2)cn1
Completion: 42

###

assay-system: hKv3.1b (Homo sapiens)
Construct: expressed in transfected cells
protocol-summary: Automated patch clamp (QPatch-16x) on HEK-293 cells stably expressing hKv3.1b
Type: cell-based
assay-setup: concentration needed to shift the activation threshold 5 mV
Could you please classify the records by ECdelta5 mV using these ranges: low (below 1000 nM), medium (1000 nM to below 3000 nM), high (3000 nM or more)

Prompt: Determine which band this compound sits in: Cc1ccc(S(=O)(=O)n2ccc(C(=O)NCc3cc(C)on3)c2)cc1 [Compound 32]
Completion: medium

Prompt: Determine which band this compound sits in: COc1ccc(S(=O)(=O)n2ccc(C(=O)NCc3cnc(C)cn3)c2)cc1F [Compound 97]
Completion: high

Prompt: Determine which band this compound sits in: Cc1ccc(CNC(=O)c2ccn(S(=O)(=O)c3ccc(F)cc3)c2)cn1 [Compound 85]
Completion: high

Prompt: Determine which band this compound sits in: COc1ccc(S(=O)(=O)n2ccc(C(=O)NCc3cnc(C)cn3)c2)c(C)c1 [Compound 98]
Completion: low

Prompt: Determine which band this compound sits in: Cc1ccc(S(=O)(=O)n2ccc(C(=S)NCc3cnc(C)cn3)c2)cc1 [Compound 94]
Completion: medium

Prompt: Determine which band this compound sits in: Cc1cc(C)c(S(=O)(=O)n2ccc(C(=O)NCc3cnc(C)cn3)c2)c(C)c1 [Compound 103]
Completion: low

Prompt: Determine which band this compound sits in: Cc1ccc(S(=O)(=O)n2ccc(C(=O)NCc3ccc(F)cn3)c2)cc1 [Compound 13]
Completion: medium

Prompt: Determine which band this compound sits in: Cc1cnc(CNC(=O)c2ccn(S(=O)(=O)c3ccc(F)cc3C)c2)cn1 [Compound 90]
Completion: medium

Prompt: Determine which band this compound sits in: Cc1ccccc1S(=O)(=O)n1ccc(C(=O)NCc2cnn(C)c2)c1 [Compound 76]
Completion: high

Prompt: Determine which band this compound sits in: Cc1ccc(S(=O)(=O)n2ccc(C(=O)NCc3cn(C)nn3)c2)cc1 [Compound 41]
Completion: high

Prompt: Determine which band this compound sits in: Cc1ccc(S(=O)(=O)n2ccc(C(=O)NCc3cnn(C)n3)c2)cc1 [Compound 109]
Completion: medium

Prompt: Determine which band this compound sits in: Cc1ccc(S(=O)(=O)n2ccc(C(=O)NCc3cnco3)c2)cc1 [Compound 50]
Completion: high

###

assay-system: hKv3.1b (Homo sapiens)
Construct: expressed in transfected cells
Sequence (P48547 1-585 isoform P48547-2): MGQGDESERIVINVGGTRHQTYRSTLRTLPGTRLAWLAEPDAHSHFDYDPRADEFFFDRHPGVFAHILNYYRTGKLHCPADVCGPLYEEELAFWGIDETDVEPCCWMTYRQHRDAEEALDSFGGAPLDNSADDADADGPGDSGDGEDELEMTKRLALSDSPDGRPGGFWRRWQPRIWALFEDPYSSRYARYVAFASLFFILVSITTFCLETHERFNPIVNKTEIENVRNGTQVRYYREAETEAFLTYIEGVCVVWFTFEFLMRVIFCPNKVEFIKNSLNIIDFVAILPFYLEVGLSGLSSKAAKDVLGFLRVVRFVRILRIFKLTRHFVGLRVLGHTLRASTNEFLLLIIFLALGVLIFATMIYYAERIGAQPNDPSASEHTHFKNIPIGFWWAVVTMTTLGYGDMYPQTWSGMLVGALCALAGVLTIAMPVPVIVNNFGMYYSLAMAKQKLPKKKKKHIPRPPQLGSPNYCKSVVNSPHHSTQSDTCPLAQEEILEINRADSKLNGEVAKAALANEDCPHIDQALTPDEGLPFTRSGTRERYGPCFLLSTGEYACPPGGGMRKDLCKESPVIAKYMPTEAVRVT
protocol-summary: Automated patch clamp (QPatch-16x) on HEK-293 cells stably expressing hKv3.1b
Type: cell-based
assay-setup: maximum absolute hyperpolarizing shift of activation threshold at tested concentrations 0.37-30 μM
Think of 20 mV as a floor: if Threshold Shift stands on it or above, it is y; beneath it, n.

Solved cases below.
Cc1ccc(S(=O)(=O)n2ccc(C(=O)NCc3cnc(C)nc3)c2)cc1	y
COc1ccc(S(=O)(=O)n2ccc(C(=O)NCc3cnc(C)cn3)c2)c(C)c1	y
COc1ncc(CNC(=O)c2ccn(S(=O)(=O)c3ccc(C)cc3F)c2)cn1	y

Prompt: Hi, just wondering whether Cc1cnc(CNC(=O)c2ccn(S(=O)(=O)c3ccc(F)cc3)c2)cn1 shows Threshold Shift of 20 mV or higher.
Completion: y

Prompt: Hi, just wondering whether Cc1ccc(S(=O)(=O)n2ccc(C(=O)NCc3nc(C)cs3)c2)cc1 shows Threshold Shift of 20 mV or higher.
Completion: n

Prompt: Hi, just wondering whether COc1ccnc(CNC(=O)c2ccn(S(=O)(=O)c3ccc(C)cc3)c2)c1 shows Threshold Shift of 20 mV or higher.
Completion: n

Prompt: Hi, just wondering whether Cc1ccc(S(=O)(=O)n2ccc(C(=O)NCc3cnc(C)o3)c2)cc1 shows Threshold Shift of 20 mV or higher.
Completion: n

Prompt: Hi, just wondering whether Cc1ccc(S(=O)(=O)n2ccc(C(=O)NCc3nccs3)c2)cc1 shows Threshold Shift of 20 mV or higher.
Completion: n

Prompt: Hi, just wondering whether Cc1ccc(CNC(=O)c2ccn(S(=O)(=O)c3ccccc3)c2)nc1 shows Threshold Shift of 20 mV or higher.
Completion: n
